measuredOn: huLTBP3 proTGFβ1 (Homo sapiens, UniProt P01137+Q9NS15)
Sequence (P01137 30-390): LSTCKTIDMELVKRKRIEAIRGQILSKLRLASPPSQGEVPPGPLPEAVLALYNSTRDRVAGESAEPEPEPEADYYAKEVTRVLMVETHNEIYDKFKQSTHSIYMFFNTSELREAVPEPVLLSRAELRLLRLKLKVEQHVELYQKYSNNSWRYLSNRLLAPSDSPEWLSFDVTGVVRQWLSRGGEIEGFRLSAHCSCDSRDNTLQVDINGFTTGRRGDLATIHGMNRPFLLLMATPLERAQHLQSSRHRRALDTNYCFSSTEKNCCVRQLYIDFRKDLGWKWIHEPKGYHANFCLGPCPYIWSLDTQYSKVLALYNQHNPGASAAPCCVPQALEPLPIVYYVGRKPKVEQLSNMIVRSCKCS
Sequence (Q9NS15 44-1303): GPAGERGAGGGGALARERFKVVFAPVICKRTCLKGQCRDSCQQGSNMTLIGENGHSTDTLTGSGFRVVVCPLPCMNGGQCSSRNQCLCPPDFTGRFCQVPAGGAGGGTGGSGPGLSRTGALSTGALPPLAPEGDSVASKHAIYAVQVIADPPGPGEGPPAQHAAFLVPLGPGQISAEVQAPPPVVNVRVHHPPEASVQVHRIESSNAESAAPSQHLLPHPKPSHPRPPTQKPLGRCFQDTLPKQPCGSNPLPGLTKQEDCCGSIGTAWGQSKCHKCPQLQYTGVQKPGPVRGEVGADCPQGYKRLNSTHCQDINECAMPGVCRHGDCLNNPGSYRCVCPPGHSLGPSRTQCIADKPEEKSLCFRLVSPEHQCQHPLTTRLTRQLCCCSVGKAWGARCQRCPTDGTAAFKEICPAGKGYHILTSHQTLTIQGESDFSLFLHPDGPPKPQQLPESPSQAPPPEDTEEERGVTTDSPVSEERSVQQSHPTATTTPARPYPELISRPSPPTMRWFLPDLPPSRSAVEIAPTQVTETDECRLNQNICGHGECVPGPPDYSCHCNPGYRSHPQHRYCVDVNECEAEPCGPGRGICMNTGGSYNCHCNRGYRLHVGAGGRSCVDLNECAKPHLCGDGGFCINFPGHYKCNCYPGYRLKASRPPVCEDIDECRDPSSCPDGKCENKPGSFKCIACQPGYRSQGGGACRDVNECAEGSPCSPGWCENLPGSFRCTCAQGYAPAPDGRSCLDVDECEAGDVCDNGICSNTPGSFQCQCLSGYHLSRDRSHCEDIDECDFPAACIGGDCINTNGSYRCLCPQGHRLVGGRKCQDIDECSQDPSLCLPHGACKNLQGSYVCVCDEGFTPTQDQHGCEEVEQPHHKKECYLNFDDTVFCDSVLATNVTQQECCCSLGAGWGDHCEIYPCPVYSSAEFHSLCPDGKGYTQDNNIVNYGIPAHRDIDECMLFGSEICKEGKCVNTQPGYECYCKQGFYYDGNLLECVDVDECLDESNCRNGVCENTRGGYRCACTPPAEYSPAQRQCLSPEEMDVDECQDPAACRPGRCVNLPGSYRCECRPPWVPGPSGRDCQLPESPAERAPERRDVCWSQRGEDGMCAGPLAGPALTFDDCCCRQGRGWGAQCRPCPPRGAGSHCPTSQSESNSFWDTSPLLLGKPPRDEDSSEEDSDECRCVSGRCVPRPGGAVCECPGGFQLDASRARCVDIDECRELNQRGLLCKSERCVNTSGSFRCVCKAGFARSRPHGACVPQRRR
experimentNotes: Octet (BLI) binding, IgG captured on AHC tips, antigen at 100 nM
measurementContext: Table 9; cycle 3; IgG1-agly; 1:1 fit

molecule	readoutUnits	Hu LTBP3-proTGFβ1 Kon
SR-AB63: cycle 3 antibody, lineage SR-AB26; CDRs SEQ ID NO: 292-297; HCVR SEQ ID NO: 360, LCVR SEQ ID NO: 361 (antibody, V domains shown) VH: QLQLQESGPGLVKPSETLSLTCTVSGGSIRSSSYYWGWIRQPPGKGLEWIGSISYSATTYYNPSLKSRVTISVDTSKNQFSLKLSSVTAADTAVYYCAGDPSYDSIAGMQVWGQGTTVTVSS VL: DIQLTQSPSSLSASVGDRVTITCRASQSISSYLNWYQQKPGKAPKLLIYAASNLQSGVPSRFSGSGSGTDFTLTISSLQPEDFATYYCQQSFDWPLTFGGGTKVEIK	M⁻¹ s⁻¹	159000

Reference for the values: patent US11214614B2
